pIC50: recorded values
# SYSTEM_UNDER_TEST: Human immunodeficiency virus type 1 reverse transcriptase (Human immunodeficiency virus 1)
# EXPERIMENTAL_DETAILS: Inhibition of RNase H activity of full length recombinant HIV1 reverse transcriptase assessed as reduction in RNA 5'-end directed cleavage using HTS3 substrate
# CONDITION_CONTEXT: read-out: IC50
pIC50: −log10 of the molar value.

- GIVEN_SMILES: "Cn1c(Oc2ccccc2-c2ccc(C(F)(F)F)cc2)cc(=O)n(O)c1=O"
  pIC50: 4.68
- GIVEN_SMILES: "Cc1ccc(-c2cccc(Nc3cc(=O)n(O)c(=O)[nH]3)c2)cc1"
  pIC50: 6.36
- GIVEN_SMILES: "COc1cc(OC)cc(-c2ccc(Nc3cc(=O)n(O)c(=O)n3C)cc2)c1"
  pIC50: 5.04
- GIVEN_SMILES: "Cn1c(Oc2ccc(-c3ccc(O)cc3)cc2)cc(=O)n(O)c1=O"
  pIC50: 4.96
- GIVEN_SMILES: "Cn1c(Nc2ccc(-c3ccc(C(F)(F)F)cc3)cc2)cc(=O)n(O)c1=O"
  pIC50: 5.18
- GIVEN_SMILES: "Cn1c(Oc2ccc(-c3ccccc3)cc2)cc(=O)n(O)c1=O"
  pIC50: 5.22
- GIVEN_SMILES: "Cc1ccc(-c2ccc(Nc3cc(=O)n(O)c(=O)[nH]3)cc2)cc1"
  pIC50: 6.30
- GIVEN_SMILES: "O=c1cc(Nc2ccc(-c3ccc(Cl)cc3)cc2)[nH]c(=O)n1O"
  pIC50: 6.22
- GIVEN_SMILES: "Cc1ccc(-c2ccc(Nc3cc(=O)n(O)c(=O)n3C)cc2)cc1"
  pIC50: 5.18
- GIVEN_SMILES: "O=c1cc(Nc2ccc(-c3cccc(O)c3)cc2)[nH]c(=O)n1O"
  pIC50: 6.40
- GIVEN_SMILES: "COc1ccc(-c2cccc(Nc3cc(=O)n(O)c(=O)n3C)c2)cc1"
  pIC50: 5.51

---

pIC50: recorded values
# SYSTEM_UNDER_TEST: UniProt Q72547
# EXPERIMENTAL_DETAILS: Inhibition of polymerase activity of HIV1 reverse transcriptase using poly(rA)-oligo(dT)16 and [3H]-TTP incubated for 20 mins by liquid scintillation spectrometry
# CONDITION_CONTEXT: read-out: IC50
pIC50: −log10 of the molar value.

- GIVEN_SMILES: "COc1ccc(-c2cccc(Nc3cc(=O)n(O)c(=O)n3C)c2)cc1OC"
  pIC50: 5.24
- GIVEN_SMILES: "Cc1ccc(-c2cccc(Nc3cc(=O)n(O)c(=O)n3C)c2)cc1"
  pIC50: 4.77
- GIVEN_SMILES: "COc1ccc(-c2cccc(Nc3cc(=O)n(O)c(=O)[nH]3)c2)cc1"
  pIC50: 5.20
- GIVEN_SMILES: "O=c1cc(Nc2ccc(-c3cccc(O)c3)cc2)[nH]c(=O)n1O"
  pIC50: 6.10
- GIVEN_SMILES: "COc1ccc(-c2cccc(Nc3cc(=O)n(O)c(=O)n3C)c2)c(OC)c1"
  pIC50: 5.20
- GIVEN_SMILES: "Cc1ccc(-c2cccc(Nc3cc(=O)n(O)c(=O)[nH]3)c2)cc1"
  pIC50: 5.51
- GIVEN_SMILES: "O=c1cc(Nc2cccc(-c3ccc(F)cc3)c2)[nH]c(=O)n1O"
  pIC50: 5.18
- GIVEN_SMILES: "O=c1cc(Nc2ccc(-c3ccc(Cl)cc3)cc2)[nH]c(=O)n1O"
  pIC50: 6.00
- GIVEN_SMILES: "COc1ccc(-c2cccc(Nc3cc(=O)n(O)c(=O)n3C)c2)cc1"
  pIC50: 5.44
- GIVEN_SMILES: "COc1cccc(OC)c1-c1cccc(Nc2cc(=O)n(O)c(=O)[nH]2)c1"
  pIC50: 5.77
- GIVEN_SMILES: "O=c1cc(Nc2ccc(-c3ccccc3O)cc2)[nH]c(=O)n1O"
  pIC50: 6.08
- GIVEN_SMILES: "COc1cc(OC)cc(-c2ccc(Nc3cc(=O)n(O)c(=O)[nH]3)cc2)c1"
  pIC50: 6.47
- GIVEN_SMILES: "O=c1cc(Nc2cccc(-c3ccc(Cl)cc3)c2)[nH]c(=O)n1O"
  pIC50: 6.07
- GIVEN_SMILES: "O=c1cc(Nc2ccc(-c3ccccc3)cc2)[nH]c(=O)n1O"
  pIC50: 5.70
- GIVEN_SMILES: "Cn1c(Nc2cccc(-c3ccc(C#N)cc3)c2)cc(=O)n(O)c1=O"
  pIC50: 5.30
- GIVEN_SMILES: "COc1cc(OC)cc(-c2ccc(Nc3cc(=O)n(O)c(=O)n3C)cc2)c1"
  pIC50: 5.19
- GIVEN_SMILES: "Cn1c(Nc2cccc(-c3ccc(O)cc3)c2)cc(=O)n(O)c1=O"
  pIC50: 4.92
- GIVEN_SMILES: "COc1ccc(-c2cccc(Nc3cc(=O)n(O)c(=O)[nH]3)c2)c(OC)c1"
  pIC50: 5.49

---

# SYSTEM_UNDER_TEST: Human immunodeficiency virus type 1 reverse transcriptase (Human immunodeficiency virus 1)
# EXPERIMENTAL_DETAILS: Inhibition of RNase H activity of full length recombinant HIV1 reverse transcriptase assessed as reduction in DNA 3'-end cleavage using HTS2 substrate
# CONDITION_CONTEXT: read-out: IC50

- GIVEN_SMILES: "COc1ccc(-c2cccc(Nc3cc(=O)n(O)c(=O)n3C)c2)cc1"
  SYSTEM_UNDER_TEST: "Human immunodeficiency virus type 1 reverse transcriptase (Human immunodeficiency virus 1)"
  IC50: "2.6 µM"
- GIVEN_SMILES: "COc1ccccc1-c1ccc(Nc2cc(=O)n(O)c(=O)n2C)cc1"
  SYSTEM_UNDER_TEST: "Human immunodeficiency virus type 1 reverse transcriptase (Human immunodeficiency virus 1)"
  IC50: "9.3 µM"
- GIVEN_SMILES: "Cn1c(Nc2ccc(-c3ccc(C(F)(F)F)cc3)cc2)cc(=O)n(O)c1=O"
  SYSTEM_UNDER_TEST: "Human immunodeficiency virus type 1 reverse transcriptase (Human immunodeficiency virus 1)"
  IC50: "8.9 µM"
- GIVEN_SMILES: "Cn1c(Nc2cccc(-c3ccc(O)cc3)c2)cc(=O)n(O)c1=O"
  SYSTEM_UNDER_TEST: "Human immunodeficiency virus type 1 reverse transcriptase (Human immunodeficiency virus 1)"
  IC50: "3.8 µM"
- GIVEN_SMILES: "COc1ccc(-c2cccc(Oc3cc(=O)n(O)c(=O)n3C)c2)cc1"
  SYSTEM_UNDER_TEST: "Human immunodeficiency virus type 1 reverse transcriptase (Human immunodeficiency virus 1)"
  IC50: "4 µM"
- GIVEN_SMILES: "Cn1c(Oc2cccc(-c3ccc(C#N)cc3)c2)cc(=O)n(O)c1=O"
  SYSTEM_UNDER_TEST: "Human immunodeficiency virus type 1 reverse transcriptase (Human immunodeficiency virus 1)"
  IC50: "6.9 µM"
- GIVEN_SMILES: "O=c1cc(Nc2ccc(-c3cccc(O)c3)cc2)[nH]c(=O)n1O"
  SYSTEM_UNDER_TEST: "Human immunodeficiency virus type 1 reverse transcriptase (Human immunodeficiency virus 1)"
  IC50: "0.43 µM"
- GIVEN_SMILES: "COc1ccc(-c2cccc(Nc3cc(=O)n(O)c(=O)[nH]3)c2)cc1"
  SYSTEM_UNDER_TEST: "Human immunodeficiency virus type 1 reverse transcriptase (Human immunodeficiency virus 1)"
  IC50: "0.3 µM"
- GIVEN_SMILES: "Cn1c(Oc2ccc(-c3ccc(O)cc3)cc2)cc(=O)n(O)c1=O"
  SYSTEM_UNDER_TEST: "Human immunodeficiency virus type 1 reverse transcriptase (Human immunodeficiency virus 1)"
  IC50: "15 µM"
- GIVEN_SMILES: "Cn1c(Nc2cccc(-c3cncnc3)c2)cc(=O)n(O)c1=O"
  SYSTEM_UNDER_TEST: "Human immunodeficiency virus type 1 reverse transcriptase (Human immunodeficiency virus 1)"
  IC50: "4.1 µM"
- GIVEN_SMILES: "Cn1c(Oc2cccc(-c3cccc(C#N)c3)c2)cc(=O)n(O)c1=O"
  SYSTEM_UNDER_TEST: "Human immunodeficiency virus type 1 reverse transcriptase (Human immunodeficiency virus 1)"
  IC50: "6.7 µM"

---

# SYSTEM_UNDER_TEST: UniProt:Q72547
# EXPERIMENTAL_DETAILS: Inhibition of re-constituted HIV1 reverse transcriptase RNase H domain fragment
# CONDITION_CONTEXT: read-out: IC50
Bucketed by reported IC50, buckets being bin 1 = under 900 nM, bin 2 = from 900 nM up to 2000 nM, bin 3 = 2000 nM and over

- GIVEN_SMILES: "O=c1cc(Nc2cccc(-c3ccc(F)cc3)c2)[nH]c(=O)n1O"
  ASSIGNED_LABEL: "bin 1"
- GIVEN_SMILES: "COc1cccc(-c2ccc(Oc3cc(=O)n(O)c(=O)n3C)cc2)c1"
  ASSIGNED_LABEL: "bin 3"
- GIVEN_SMILES: "Cc1ccc(-c2ccc(Nc3cc(=O)n(O)c(=O)[nH]3)cc2)cc1"
  ASSIGNED_LABEL: "bin 1"
- GIVEN_SMILES: "COc1ccccc1-c1cccc(Nc2cc(=O)n(O)c(=O)n2C)c1"
  ASSIGNED_LABEL: "bin 2"
- GIVEN_SMILES: "COc1ccc(-c2ccc(Oc3cc(=O)n(O)c(=O)n3C)cc2)cc1"
  ASSIGNED_LABEL: "bin 3"
- GIVEN_SMILES: "COc1cccc(OC)c1-c1cccc(Nc2cc(=O)n(O)c(=O)n2C)c1"
  ASSIGNED_LABEL: "bin 2"
- GIVEN_SMILES: "COc1ccccc1-c1cccc(Oc2cc(=O)n(O)c(=O)n2C)c1"
  ASSIGNED_LABEL: "bin 3"
- GIVEN_SMILES: "COc1ccc(-c2cccc(Oc3cc(=O)n(O)c(=O)n3C)c2)cc1"
  ASSIGNED_LABEL: "bin 2"
